test system: MDA-MB-231 breast; assay: NCI-60 one-dose screen, 48 h (100 = growth as untreated, 0 = no growth, -100 = all killed); details: 10 µM unless noted
This is part of a sample that, as a whole, favours compounds with a hit. Of some 83,000 tested, about 20% had one in any assay. Activity calls are given as the source filed them. How the source made its calls: active means growth percent below 10; inactive means the rest.
Assay endpoint: growth

{"Molecule": "CCCCC(=O)Nc1c(C(=O)Nc2ccccc2)sc2nc3c(cc12)C(OC(=O)CCCC)CCC3 (stereo not given)", "Test value": "87.9% (inactive)"}
{"Molecule": "O=S(=O)(Nc1nccs1)c1ccc(Nc2nc(-c3ccncc3)cs2)cc1", "Test value": "105% (inactive)"}
{"Molecule": "COc1ccc(-c2cc(C(=O)N3N=C(c4ccc(N)cc4)CC3c3ccc(OC)cc3)c3cc(OC)ccc3n2)cc1 (stereo not given)", "Test value": "73.6% (inactive)"}

Inquiry: // query growth value for entry COC1=CC2C=C(C3N(c4ccccc4)NC(=O)[C@@H]4CCCN34)C(=O)NC2C=C1 (stereo not given in full)
Reply text: 111% (inactive)

Inquiry: // query growth value for entry CC(C)NS(=O)(=O)c1cccc(-c2ccc3c(=O)n(CCCN)c4c(c3c2)C(=O)c2ccccc2-4)c1
Reply text: 108% (inactive)

Data provenance is PubChem BioAssay (NCI).
